Species on record: Rattus norvegicus
measurement-description: DrugMatrix - Regimen: Daily Repeat
Format: toxicity, organism-based, Sprague-Dawley
Parameters: regimen Daily Repeat, gender Male, age 6-8 weeks
measurement-context: in vivo, ip, 0 mg/kg, […], tissue Blood, route intraperitoneal, dose level Control, time 28 day, vehicle 100 % SALINE
assay-readout: ABSOLUTE LYMPHOCYTE (cells/µL)

1. GENTAMICIN | 9910

----------
Species: Rattus norvegicus
measurement-description: DrugMatrix - Regimen: Daily Repeat
Assay type: toxicity, organism-based, Sprague-Dawley
Set-up: regimen Daily Repeat, gender Male, age 6-8 weeks
measurement-context: in vivo, po, 1500 mg/kg, 120 h, tissue Plasma, route oral GAVAGE, dose level High, time 5 day, vehicle .5 % CMC
In this section we review reported POTASSIUM values for a set of molecules.
assay-readout: POTASSIUM (MEQ/L)

1) CN(C)[C@@H]1C(O)=C(C(N)=O)C(=O)[C@@]2(O)C(O)=C3C(=O)c4c(O)ccc(Cl)c4[C@@](C)(O)[C@H]3C[C@@H]12 | 5.95
2) CC(C)=CCC/C(C)=C/CO | 6.32
3) CC(C)Oc1ccc2c(=O)c(-c3ccccc3)coc2c1 | 6.76
4) COC(=O)Nc1nc2ccc([S+]([O-])c3ccccc3)cc2[nH]1 (stereo not given) | 6.91
5) O=c1cnn([C@@H]2O[C@H](CO)[C@@H](O)[C@H]2O)c(=O)[nH]1 | 6.72
